Tested on: PXR:RXRa (NR concentration 270 nM, RXRa partner concentration 90 nM)
ASSAY_DETAILS: PBM binding z-score (relative to random genomic background probes); higher = stronger binding; sequences stand for … in GC…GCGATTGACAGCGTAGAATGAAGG
PBM binding z-score of 0.7 or higher: label 1. Under 0.7: label 0.

ENTRY_SEQUENCE | ASSIGNED_LABEL
TCTCGGAGGAGACGAAAGGTCAGAGCTCGACATC | label 1
CCGAGTGGGGCATAAGGTTACCATAAGCCAGCCC | label 0
ACAGACTGGTGATGAAGGTAACTCAGGCTATCAT | label 0
TCATATAGGTAGAGGTGAAAGTCGAACGATATGA | label 1
GATACAGGGTCACCTAGAGGCCAGAGTATGGAAA | label 1
ACAGACAGGTGATTAAGGTAACTCAGGCTATCAT | label 0
CCTAGTTGCTCAAGGTCACACACGCTATAGGTAC | label 1
TCTCGGCGGACACGAAGGTCAGAGCTTTCCAGAG | label 1
CGGACTAGGTCAGAACAGGACAGTGAAGGATGAT | label 1
TCGAGTAGGTTACCAAAGGGGCATTCAGCTTTCT | label 1
CGTCCAAGGTCATAGGAGGTCCGTGAAGACAGAT | label 1
CGAACTAGGGCAAGGACAGTGAATCTCCGCACGC | label 0

----------
Tested on: LXRa homodimer (NR concentration 270 nM)
ASSAY_DETAILS: PBM binding z-score (relative to random genomic background probes); higher = stronger binding; sequences stand for … in GC…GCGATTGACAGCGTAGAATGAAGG
// reported PBM binding z-score for each item listed
PARAMETER: PBM binding z-score

ENTRY_SEQUENCE | VALUE
ATCGAAAGGTCGAGGTGGGTATAGAGAAAGGGAA | 0.722
CGTCAAAGTGCAACTAAGGTAACGTAAAGCACGC | -0.122
ACAGACAGGTCATGAAGGTAACTCAGGCTATCAT | 0.927
GCTAGCAGGCCTTTTGGGTCACTCAATGACGGGC | -0.408
CCTATTAGTTGACCATAAGGTCAACCGAAGCTCG | 3.35
CCTCGGAGGACAGAAGGTCCGAGCTGTCCGCTTT | -0.887
CCGGCTGGGGCAAAGGTTACCATACTCAGTACGA | -0.197
CCTATTAGTTGACCGTAAGGGCAACCGAAGCTCG | 0.863
TCTGCTAGGTCAACGATGGTTAGCTAATCTGCTA | -0.301
AGAATGAGGTTATACGAAGATCAGGGAAGAAAGT | -0.199
GCTTACGGGGCAAAGGTTATAGCATGAATAGAAT | 0.016
CCTAGCAGGCAAGGGTCACTCAAGCATTTCGCTT | -0.242

----------
Tested on: RARb:RXRa (NR concentration 270 nM, RXRa partner concentration 90 nM)
ASSAY_DETAILS: PBM binding z-score (relative to random genomic background probes); higher = stronger binding; sequences stand for … in GC…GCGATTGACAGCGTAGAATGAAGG
PBM binding z-score values for the sequences below.
PARAMETER: PBM binding z-score

ENTRY_SEQUENCE | VALUE
CCGACTGGGGCAGAAAGGTTACCAGACCATCCGG | 1.89
CAGACAGGGTCAGCTAGGCCAGAGTAGGGACGGC | 3.84
TCTAGTTGGTCACGGAGGTAACACACGACGGGTA | 1.8
TCGAGTAGGTTACGGGCATTCAGAATGGCGTCGA | 1.29
TAGCCTAGGTCATTGGGTCAGTATAGTACGCATC | 4.06
TCTATTAGTTGAAGGGCAACAGACGAGTCCGTTT | 1.55
